# average R2, differences listing for each entry below
- target_under_test: CRBN/DDB1 complex (Homo sapiens)
- Construct: made in house
- protocol_notes: R2 values of fragment hits at two ligand concentrations (preliminary ranking)
- Type: binding
- condition_context: R2 at 50 μM minus R2 at 200 μM, 2 μM CRBN/DDB1 complex
Number only, please.

Would you please look over these solved cases?
N#CCCCN1C(=O)COc2ccc(Cl)cc21    0.8
N#CCCCn1c(=O)oc2ccc(Cl)cc21    0.3
O=CN1CCN(Cc2c(F)cccc2Cl)CC1    0.1
COc1ccc(C(=O)N2CCN(c3ccccn3)CC2)cc1    0.2
O=C(c1ccc(F)cc1)N1CCN(c2ccccc2)CC1    0.2

// below: average R2, differences requested for another compound
Lookup result for Cc1ccc(N2CC(=O)NC2=O)cc1 ; measured average R2, differences: 2.9

----------
# average R2, compound at 200 μM listing for each entry below
- target_under_test: CRBN/DDB1 complex (Homo sapiens, UniProt Q96SW2)
- Construct: made in house
- Sequence (Q96SW2 40-442 limits assumed, species assumed, one chain of several): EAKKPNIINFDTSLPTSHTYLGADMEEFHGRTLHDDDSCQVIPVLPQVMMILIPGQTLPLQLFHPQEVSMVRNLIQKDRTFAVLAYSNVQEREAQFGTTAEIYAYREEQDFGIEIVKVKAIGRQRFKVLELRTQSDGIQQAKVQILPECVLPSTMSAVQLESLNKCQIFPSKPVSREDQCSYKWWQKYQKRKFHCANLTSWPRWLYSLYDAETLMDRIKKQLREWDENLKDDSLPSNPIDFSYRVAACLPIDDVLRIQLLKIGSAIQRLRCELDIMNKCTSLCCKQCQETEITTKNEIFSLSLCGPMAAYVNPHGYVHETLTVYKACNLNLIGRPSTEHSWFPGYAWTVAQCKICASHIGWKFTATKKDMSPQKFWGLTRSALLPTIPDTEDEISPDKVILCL
- protocol_notes: R2 values of fragment hits at two ligand concentrations (preliminary ranking)
- Type: binding
- condition_context: 200 μM ligand, 2 μM CRBN/DDB1 complex
Number only, please.

COc1cc2c(cc1OC)C(c1cccc(O)c1)CC(=O)N2 (stereo not shown) [CCT242858]    2.1
N#CCCCn1c(=O)oc2ccc(Cl)cc21 [CCT242918]    1.3
O=CN1CCN(Cc2cccc(Cl)c2)CC1 [CCT240121]    3.3

// returns average R2, compound at 200 μM for N#CCCCN1C(=O)COc2ccc(Cl)cc21 [CCT228155] with CRBN/DDB1 complex (Homo sapiens, UniProt Q96SW2); value = 2.2

----------
- target_under_test: BCL6 BTB (Homo sapiens, UniProt P41182)
- Construct: made in house
- protocol_notes: R2KD ligand-observed 1H NMR assay (Kd from transverse relaxation rate R2)
- Assay type: binding
- condition_context: 5 μM BCL6; individual peak fit; unit inferred; read-out: Kd fitted using individual peak, Peak 2
quantity_kind: Kd (µM)
Provide the reading as a plain figure in µM.

Lookup result for Cc1nccc(Nc2cnn(CCO)c2)c1C#N ; measured Kd: 53

----------
- target_under_test: CRBN/DDB1 complex (Homo sapiens)
- Construct: made in house
- protocol_notes: R2KD ligand-observed 1H NMR assay (Kd from transverse relaxation rate R2)
- Format: binding
- condition_context: fragment hit triage, top 10 fragments; read-out: R2KD assay Kd
# Kd listing for each entry below
Provide the reading as a plain figure in µM.

CC(=O)Nc1cc2c(cc1C(=O)C(C)C)OCCO2    532

Lookup result for COC(=O)c1ccc2c(c1)NC(=O)CO2 ; measured Kd: 72

Lookup result for N#CCCCN1C(=O)COc2ccc(Cl)cc21 ; measured Kd: 798
